# assay.text: Cytotoxicity against HEL cells assessed as alteration in cell morphology after 3 days
# Format: cell-based
# test.parameters: human

record.smiles	MCC at 72 h
CCNC(=O)NC1=CS(=O)(=O)O[C@@]12[C@@H](CO[Si](C)(C)C(C)(C)C)O[C@@H](n1cc(C)c(=O)n(C)c1=O)[C@@H]2O[Si](C)(C)C(C)(C)C	≥ 3.2 µM
CC(=O)O[C@H]1[C@H](n2cc(C)c(=O)n(C)c2=O)O[C@H](COC(=O)c2ccccc2)[C@@]12OS(=O)(=O)C=C2NC(=O)NC(=O)c1ccccc1	> 100 µM
Cc1cn([C@@H]2O[C@H](COCc3ccccc3)[C@@]3(OS(=O)(=O)C=C3NC(=O)NC(=O)c3ccccc3)[C@H]2O[Si](C)(C)C(C)(C)C)c(=O)n(C)c1=O	> 50 µM
Cc1cn([C@@H]2O[C@H](CO[Si](C)(C)C(C)(C)C(C)C)[C@@]3(OS(=O)(=O)C=C3NC(=O)NC(=O)c3ccccc3)[C@H]2O[Si](C)(C)C(C)(C)C(C)C)c(=O)n(C)c1=O	≥ 100 µM

From: ChEMBL document CHEMBL1140035
